Target: hTDO2 (Homo sapiens, UniProt P48775)
Construct: endogenous in cells
Sequence (P48775 whole entry): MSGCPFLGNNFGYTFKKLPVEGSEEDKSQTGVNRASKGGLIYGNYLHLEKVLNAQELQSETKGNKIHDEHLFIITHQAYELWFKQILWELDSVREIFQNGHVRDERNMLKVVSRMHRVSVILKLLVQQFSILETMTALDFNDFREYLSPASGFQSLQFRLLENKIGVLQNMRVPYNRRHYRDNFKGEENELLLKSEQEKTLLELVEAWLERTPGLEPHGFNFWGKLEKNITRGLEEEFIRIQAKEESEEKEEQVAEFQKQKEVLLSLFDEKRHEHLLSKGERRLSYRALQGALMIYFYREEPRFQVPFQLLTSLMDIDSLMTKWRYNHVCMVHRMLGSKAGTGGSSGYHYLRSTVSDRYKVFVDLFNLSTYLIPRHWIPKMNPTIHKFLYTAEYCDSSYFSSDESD
Test: Cellular assay for TDO2 activity determination in A172 cells
Conditions: human glioblastoma A172 cells naturally expressing hTDO2; overnight incubation; kynurenine by absorbance at 480 nm
pIC50: −log10 of the molar value.
Rule: yes (1) for pIC50 not less than 7, no (0) for anything less.

The examples below pair each entry with its known result.
>>> df
                                   compound  discrete_label
0  CC1c2cc(-c3c[nH]c4cc(F)ccc34)ccc2S(=O)(=O)N1C[C@@H](O)CO (single isomer, unassigned) [Example 93]          no (0)
1  CNC(=O)C(CN1C(C)c2cc(-c3c[nH]c4cc(F)ccc34)ccc2S1(=O)=O)OC (single isomer, unassigned; (-)) [Example 106]          no (0)
2  CC1c2cc(-c3c[nH]c4cc(F)ccc34)ccc2S(=O)(=O)N1C1CNC1 (single isomer, unassigned; (-)) [Example 91]          no (0)
3  CC1c2cc(-c3c[nH]c4cc(F)ccc34)ccc2S(=O)(=O)N1Cc1ccccn1 (stereo not drawn)          no (0)
4  CC1c2cc(-c3c[nH]c4cc(F)ccc34)ccc2S(=O)(=O)N1CCN1CCOC1=O (single isomer, unassigned; (-)) [Example 70]         yes (1)

Shifting focus to the compound that follows.
Given the entry CC1c2cc(-c3c[nH]c4cc(F)ccc34)ccc2S(=O)(=O)N1CCC(N)=O (single isomer, unassigned; (+)) [Example 47] , answer whether its pIC50 meets or surpasses 7.
no (0)
